Measured protein stability index values are reported for all entries that follow.
B1: EPB41L3 (parent)
chain: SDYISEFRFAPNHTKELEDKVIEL

Variants of: B1
Experiment Notes: protein stability index of a GFP-peptide fusion (GPS, HEK-293T) (PSI 1-6); higher = more stable;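 note: lentivirally expressed fusions sorted by FACS into six bins by GFP to DsRed ratio, PSI derived from sequencing read proportions per bin multiplied by bin number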
Cond: c terminus: a fixed tail appended
Outcome Measure: protein stability index

| Residue Sequence | Result Value |
| --- | --- |
| SDYISEFPFAPNHTKELEDKVIEL [R8P] | 4.4 |
| SDYISEFRFAPWHTKELEDKVIEL [N12W] | 1.5 |
| SDYISEFRFAKNHTKELEDKVIEL [P11K] | 2.3 |
| SDYISAFRFAPNHTKELEDKVIEL [E6A] | 1.67 |
| SDYISEFRFAPNHTKELEVKVIEL [D19V] | 2.09 |
| SDYHSEFRFAPNHTKELEDKVIEL [I4H] | 3.96 |
| SDYISEFRFAPNHTKELEDKVIKL [E23K] | 1.75 |
| SDYISEFRFAPNHTKELEDKVIEK [L24K] | 2.96 |
| SDYISEFRFAPKHTKELEDKVIEL [N12K] | 2.18 |
| SDYISEFRFAPNHTKELEDKGIEL [V21G] | 2.37 |
| SDYISEFRFAPNHTKELEDKVIEC [L24C] | 3.05 |
| SDYISEFRHAPNHTKELEDKVIEL [F9H] | 4.41 |
| SGYISEFRFAPNHTKELEDKVIEL [D2G] | 1.45 |
| SDYISEKRFAPNHTKELEDKVIEL [F7K] | 4.38 |
| SDYISEFQFAPNHTKELEDKVIEL [R8Q] | 4.1 |
| SDYISEFRFAPNHTKELEDKVDEL [I22D] | 2.88 |
| SDYISEFRFAPNHTKEKEDKVIEL [L17K] | 2.07 |
| SDYDSEFRFAPNHTKELEDKVIEL [I4D] | 4.2 |
| SDYISEFRFAPPHTKELEDKVIEL [N12P] | 2.19 |
| ADYISEFRFAPNHTKELEDKVIEL [S1A] | 2.38 |
| SDYISEFRFAPNHTKELEDKVVEL [I22V] | 2.58 |
| SDYISEFRFAPNHTKELEDKVREL [I22R] | 3.03 |
| SDYISEFRFAPNHTTELEDKVIEL [K15T] | 2.1 |
| SDYISEFRFRPNHTKELEDKVIEL [A10R] | 3.54 |
| SDYISEFRFMPNHTKELEDKVIEL [A10M] | 3 |
| SDYISEFRFAPSHTKELEDKVIEL [N12S] | 2.21 |
| SDYISEFRFAPNHTKELEDKVIEI [L24I] | 2.12 |
| SDYISEFRFATNHTKELEDKVIEL [P11T] | 2.82 |
| SDYISEFRFAPNHTKELEDKVCEL [I22C] | 2.19 |
| SDYISEFCFAPNHTKELEDKVIEL [R8C] | 4.05 |
| SDYISEFRFAPNKTKELEDKVIEL [H13K] | 2.29 |
| SDYISEFRFAPNHTKELEDKVIML [E23M] | 1.92 |
| SDYISEFRFYPNHTKELEDKVIEL [A10Y] | 3.09 |
| SDYISEFDFAPNHTKELEDKVIEL [R8D] | 4.51 |
| SDYISEFRFAPNHTKNLEDKVIEL [E16N] | 1.76 |
| SDYISEFRFAPNHTKELESKVIEL [D19S] | 2.81 |
| MDYISEFRFAPNHTKELEDKVIEL [S1M] | 1.92 |
| SDYISEFRFAPNHTKDLEDKVIEL [E16D] | 1.82 |
| SHYISEFRFAPNHTKELEDKVIEL [D2H] | 1.85 |
| SFYISEFRFAPNHTKELEDKVIEL [D2F] | 2.02 |
| SDYISEFRFAPNHMKELEDKVIEL [T14M] | 2.65 |
| SDYISEFGFAPNHTKELEDKVIEL [R8G] | 4.38 |
| SDYISEFRFAPNHTKELEDNVIEL [K20N] | 1.87 |
| SDYISEFRFAPNHTSELEDKVIEL [K15S] | 2.07 |
| SDYINEFRFAPNHTKELEDKVIEL [S5N] | 2.22 |
| SDYISEFRFAPNHTKEEEDKVIEL [L17E] | 2.32 |
| SDYISEFRFAPNHTKYLEDKVIEL [E16Y] | 2.56 |
| SDYISEFRFAPNHTKEDEDKVIEL [L17D] | 2.51 |
| SDYISEFRFAPNHTKELEDKVIET [L24T] | 2.28 |
| FDYISEFRFAPNHTKELEDKVIEL [S1F] | 1.96 |
| SDYISEFRFAPNHTKELEDKVWEL [I22W] | 2.45 |
| SDYISEFRFAPNHTKELEDGVIEL [K20G] | 1.93 |
| SDYISEFRFAPNHTRELEDKVIEL [K15R] | 1.74 |
| SDYISEFRPAPNHTKELEDKVIEL [F9P] | 4.76 |
| SDYCSEFRFAPNHTKELEDKVIEL [I4C] | 3.6 |
| SDYISEFRFAPNHTKELEDAVIEL [K20A] | 2.4 |
| SDYWSEFRFAPNHTKELEDKVIEL [I4W] | 3.03 |
| SDYICEFRFAPNHTKELEDKVIEL [S5C] | 1.97 |
| SDYIWEFRFAPNHTKELEDKVIEL [S5W] | 1.82 |
| SDYISEFRFAPNHTKELEDKVNEL [I22N] | 2.74 |
| SDYISEFRFAPNHTKELNDKVIEL [E18N] | 1.81 |
| SDYISEFRFAPNETKELEDKVIEL [H13E] | 3.3 |
| SDTISEFRFAPNHTKELEDKVIEL [Y3T] | 3.06 |
| SDYISEFRFAPNHTKELEDKVIEF [L24F] | 2.31 |
| SDYISEFRFAPNHIKELEDKVIEL [T14I] | 2.7 |
| SDYILEFRFAPNHTKELEDKVIEL [S5L] | 1.92 |
| SDYISEFRFAPNQTKELEDKVIEL [H13Q] | 2.46 |
| SDYISEFRFAPNHTKELYDKVIEL [E18Y] | 1.77 |
| SDYISEFRFAPNDTKELEDKVIEL [H13D] | 3.71 |
| SSYISEFRFAPNHTKELEDKVIEL [D2S] | 2.11 |
| SDYISEFRFAPNHTKELEDKVIFL [E23F] | 3.17 |
| SDYISEFRFAPNHNKELEDKVIEL [T14N] | 2.25 |
| SNYISEFRFAPNHTKELEDKVIEL [D2N] | 1.88 |
| SDYISEFRFAHNHTKELEDKVIEL [P11H] | 1.88 |
| SDYISEMRFAPNHTKELEDKVIEL [F7M] | 4 |
| SDYISEFRFAPNHTKELEDVVIEL [K20V] | 2.02 |
| SDYISEFRFAPNHTKELFDKVIEL [E18F] | 1.8 |
| SDYISEFRFAPNCTKELEDKVIEL [H13C] | 2.19 |
| SDYISEFRFTPNHTKELEDKVIEL [A10T] | 2.05 |
| SDYISEFRFAPNHTKELEAKVIEL [D19A] | 1.49 |
| SDYISEFRFAPNWTKELEDKVIEL [H13W] | 1.72 |
| SDYISEFRFAPNHTKELEDKVIYL [E23Y] | 2.38 |
| SDYIMEFRFAPNHTKELEDKVIEL [S5M] | 1.27 |
| SDYISEFRFSPNHTKELEDKVIEL [A10S] | 2.61 |
| SDYISEFRFAPNHFKELEDKVIEL [T14F] | 1.97 |
| SDYISEFRFAPNHGKELEDKVIEL [T14G] | 1.88 |
| SDYISEFRIAPNHTKELEDKVIEL [F9I] | 3.83 |
| SDSISEFRFAPNHTKELEDKVIEL [Y3S] | 3.59 |
| SDYLSEFRFAPNHTKELEDKVIEL [I4L] | 2.36 |
| SDYISEFAFAPNHTKELEDKVIEL [R8A] | 3.7 |
| SDYISEFRFAPNHTKELEEKVIEL [D19E] | 1.77 |
